RUN_DESCRIPTION: in vitro
STATED_CONDITIONS: African green monkey
READOUT_KIND: CC50

compound=Cc1cccc(C)c1OCC(=O)N[C@@H](Cc1ccccc1)[C@@H](O)C[C@H](Cc1ccccc1)NC(=O)[C@H](C(C)C)N1CCCNC1=O reported_value="> 150 µM"
compound=O=c1c(Cl)c(Cl)cnn1Cc1nc2ccccc2c2ccccc12 reported_value="> 50 µM"

Then this compound:
Query (compound): O=C(/C=C/c1cccc2ccccc12)c1c(O)ccc2ccccc12 [28d] ; field requested: CC50
> 50 µM

* * *

Test system: human lung cell line A549
RUN_DESCRIPTION: Cytotoxicity assay, WST-1
STATED_CONDITIONS: read-out: CC50 A549 cells, 24 h
READOUT_KIND: CC50

compound="[O-][n+]1onc2ccc(/C=C/[S+]([O-])c3ccc(Cl)cc3)cc21 (centres unmarked)" reported_value="50 to 100 µM"

Query (compound): [O-][n+]1onc2ccc(/C=C/Sc3ccc(Cl)cc3)cc21 ; field requested: CC50
< 50 µM

* * *

RUN_DESCRIPTION: in vitro
STATED_CONDITIONS: African green monkey
READOUT_KIND: CC50

molecule="[O-][n+]1onc2ccc(/C=C/[S+]([O-])c3ccc(Cl)cc3)cc21 (centres unmarked)" reported_value="15.2 µM"
molecule=O=C(/C=C/c1ccc2no[n+]([O-])c2c1)c1ccc(Cl)cc1 reported_value="> 50 µM"
molecule="CCN(CC)CCCC(C)Nc1ccnc2cc(Cl)ccc12 (centres unmarked)" reported_value="> 150 µM"
molecule="Nc1ccc(S(=O)(=O)c2ccc(Nc3c([N+](=O)[O-])c(Cl)cc4c3no[n+]4[O-])cc2)cc1 [22d]" reported_value="> 50 µM"

Then this molecule:
Query (molecule): O=c1c2ccccc2[se]n1-c1ccccc1 ; field requested: CC50
> 50 µM

* * *

Test system: SARS-CoV-2 (βCoV/KOR/KCDC03/2020)
RUN_DESCRIPTION: microbe, parasite or virus in culture
Format: cell-based
STATED_CONDITIONS: Severe acute respiratory syndrome coronavirus 2, Vero, 24 h
READOUT_KIND: pIC50
A value of pIC50 is the negative decimal logarithm of a concentration given in moles per litre.

For orientation, consider the following solved cases.
compound="O=C(/C=C/c1cccc2ccccc12)c1c(O)ccc2ccccc12 [28d]" readout_kind=pIC50 reported_value=4.31
compound="Cc1cccc(C)c1OCC(=O)N[C@@H](Cc1ccccc1)[C@@H](O)C[C@H](Cc1ccccc1)NC(=O)[C@H](C(C)C)N1CCCNC1=O [Lopinavir]" readout_kind=pIC50 reported_value=4.66
compound="CCN(CC)CCCC(C)Nc1ccnc2cc(Cl)ccc12 (centres unmarked) [Chloroquine]" readout_kind=pIC50 reported_value=4.74

Then this compound:
Query (compound): O=c1c2ccccc2[se]n1-c1ccccc1 [Ebselen] ; field requested: pIC50
5.00

* * *

TESTED_ON: SARS-CoV-2 MPro (Severe acute respiratory syndrome coronavirus 2)
RUN_DESCRIPTION: MPro activity assay (de-quenching of Edans fluorescence on cleavage of a Dabcyl/Edans peptide)
Type: biochemical
STATED_CONDITIONS: read-out: MPro activity (%)
READOUT_KIND: activity at 25 µM
Respond with a number, then the unit of measure.

For orientation, consider the following solved cases.
molecule="Cc1ccc([S+]([O-])/C=C/c2ccc3no[n+]([O-])c3c2)cc1 (stereo not drawn) [11d]" reported_value=70.6%
molecule="[O-][S+](/C=C/c1ccc2nonc2c1)c1ccccc1 (stereo not drawn) [16d]" reported_value=71.9%

Then this molecule:
Query (molecule): O=S(=O)(/C=C\c1ccc2no[n+]([O-])c2c1)c1ccccc1 [18d] ; field requested: activity at 25 µM
71.2%
